Test system: horse erythrocytes
ASSAY SETUP: TRIS buffer pH 7.2, 1 h, 37°C, absorbance 540 nm, relative to melittin 100 μM, ± confidence interval (α = 0.05)
Residues, ends and D or L forms follow the SMILES beside them. *: point of attachment. Butyryl = CCCC(=O)*
ENDPOINT: Percent hemolysis at 150 μM (%)
// units = %; emit number, no label

Below: 2 compounds and their reported Percent hemolysis at 150 μM.
{"columns": ["COMPOUND", "ENDPOINT", "UNIT SYMBOL", "NUMERIC VALUE"],
 "data": [
  ["CC[C@H](C)[C@H](NC(=O)[C@H](CCCCN)NC(=O)[C@H](CCCCN)NC(=O)[C@@H](Cc1ccccc1)NC(=O)[C@H](CC(C)C)NC(=O)[C@H](CCCCN)NC(=O)[C@@H](N)CCCCN)C(=O)N[C@@H](CC(C)C)C(=O)N[C@@H](CCCCN)C(=O)N[C@@H](Cc1ccc(O)cc1)C(=O)N[C@@H](CC(C)C)C(N)=O [BP143, reference compound]", "Percent hemolysis at 150 μM", "%", 4],
  ["CC[C@H](C)[C@H](NC(=O)[C@H](CCCCN)NC(=O)[C@H](CCCCN)NC(=O)[C@H](Cc1ccccc1)NC(=O)[C@H](CC(C)C)NC(=O)[C@H](CCCCN)NC(=O)[C@@H](N)CCCCN)C(=O)N[C@@H](CC(C)C)C(=O)N[C@@H](CCCCN)C(=O)N[C@@H](Cc1ccc(O)cc1)C(=O)N[C@@H](CC(C)C)C(N)=O [BP100, reference compound]", "Percent hemolysis at 150 μM", "%", 7]
]}

Now take the following compound into account.
Looking up CCCC(=O)NCCCC[C@H](NC(=O)[C@@H](NC(=O)[C@H](CCCCN)NC(=O)[C@H](CCCCN)NC(=O)[C@H](Cc1ccccc1)NC(=O)[C@H](CC(C)C)NC(=O)[C@H](CCCCN)NC(=O)[C@H](CCCCN)NC(C)=O)[C@@H](C)CC)C(=O)N[C@@H](CCCCN)C(=O)N[C@@H](Cc1ccc(O)cc1)C(=O)N[C@@H](CC(C)C)C(N)=O [BP387, reference compound] (Ac-KKLFKKIK(Butyryl)KYL-NH2) , I found its Percent hemolysis at 150 μM recorded as 11

---

Tested on: horse erythrocytes
ASSAY SETUP: TRIS buffer pH 7.2, 1 h, 37°C, absorbance 540 nm, relative to melittin 100 μM, ± confidence interval (α = 0.05)
ENDPOINT: Percent hemolysis at 150 μM (%)
// units = %; emit number, no label

Looking up RINSAKDDAAGLQIA-KKLFKKILKYL-NH2 [flg15-BP100] , I found its Percent hemolysis at 150 μM recorded as 52

Looking up KKLFKKILKKL-RINSAKDDAAGLQIA-OH [BP16-flg15] , I found its Percent hemolysis at 150 μM recorded as 1

Looking up FKLFKKILKVL-KKLfKKILKYL-NH2 [BP13-BP143] , I found its Percent hemolysis at 150 μM recorded as 100

---

Listing of recorded MIC, Psa by entry.
Tested on: Pseudomonas syringae pv. actinidiae Psa3700.1.1
EXPERIMENT NOTES: In vitro growth inhibition (MIC)
Assay type: cell-based
ASSAY SETUP: TSB, 25°C, 48 h, OD 600 nm (Bioscreen C), three replicates, experiment repeated twice; MIC given as range
No end group written: not given here.

Below: 7 substances and their reported MIC, Psa.
{"columns": ["SUBSTANCE", "MIC, Psa"],
 "data": [
  ["KKLFKKILKKLVWNQPVRGFKVYE [BP16-Pep13]", "1.6 to 3.1 µM"],
  ["FKLFKKILKVL-KKLFKKILKYL-NH2 [BP13-BP100, peptide conjugate, BP13 at N-terminus, BP100 at C-terminus]", "25 to 50 µM"],
  ["VWNQPVRGFKVYE-OH [Pep13, pathogen-associated molecular pattern (PAMP) from Phytophthora sojae; plant defense elicitor monomer]", "> 50 µM"],
  ["KKLFKKILKYL-FKLFKKILKVL-NH2 [BP100-BP13, peptide conjugate, BP100 at N-terminus, BP13 at C-terminus]", "25 to 50 µM"],
  ["YGIHTH-NH2 [PIP1, plant defense elicitor peptide identified through combinatorial chemistry; monomer]", "> 50 µM"],
  ["FKLFKKILKVL-KKLfKKILKYL-NH2 [BP13-BP143, peptide conjugate, BP13 at N-terminus, BP143 at C-terminus]", "> 50 µM"],
  ["KKLfKKILKYL-FKLFKKILKVL-NH2 [BP143-BP13, peptide conjugate, BP143 at N-terminus, BP13 at C-terminus]", "25 to 50 µM"]
]}

Now take the following substance into account.
Looking up VWNQPVRGFKVYEKKLFKKILKKL-NH2 [Pep13-BP16] , I found its MIC, Psa recorded as 1.6 to 3.1 µM

---

Tested on: horse erythrocytes
ASSAY SETUP: TRIS buffer pH 7.2, 1 h, 37°C, absorbance 540 nm, relative to melittin 100 μM, ± confidence interval (α = 0.05)
Residues, ends and D or L forms follow the SMILES beside them. *: point of attachment. Butyryl = CCCC(=O)*
Listing of recorded Percent hemolysis at 250 μM by entry.
// units = %; emit number, no label

{"columns": ["MOLECULE", "UNIT SYMBOL", "Percent hemolysis at 250 μM"],
 "data": [
  ["CCCC(=O)NCCCC[C@H](NC(=O)[C@@H](NC(=O)[C@H](CCCCN)NC(=O)[C@H](CCCCN)NC(=O)[C@H](Cc1ccccc1)NC(=O)[C@H](CC(C)C)NC(=O)[C@H](CCCCN)NC(=O)[C@H](CCCCN)NC(C)=O)[C@@H](C)CC)C(=O)N[C@@H](CCCCN)C(=O)N[C@@H](Cc1ccc(O)cc1)C(=O)N[C@@H](CC(C)C)C(N)=O [BP387, reference compound] (Ac-KKLFKKIK(Butyryl)KYL-NH2)", "%", 14]
]}

Looking up CC[C@H](C)[C@H](NC(=O)[C@H](CCCCN)NC(=O)[C@H](CCCCN)NC(=O)[C@H](Cc1ccccc1)NC(=O)[C@H](CC(C)C)NC(=O)[C@H](CCCCN)NC(=O)[C@@H](N)CCCCN)C(=O)N[C@@H](CC(C)C)C(=O)N[C@@H](CCCCN)C(=O)N[C@@H](CCCCN)C(=O)N[C@@H](CC(C)C)C(N)=O [BP16, reference compound] , I found its Percent hemolysis at 250 μM recorded as 1

---

Test system: tobacco leaves
EXPERIMENT NOTES: Effect of peptide infiltration on tobacco leaves (phytotoxicity)
Format: in vivo
ASSAY SETUP: 100 μL infiltrated into mesophyll, lesion diameter 48 h after infiltration, at least three leaves; ± confidence interval (α = 0.05)
Method: Peptide conjugates were also assayed for their toxicity in tobacco leaves (Fig. 3, Table SC). After 48 h of infiltration, melittin caused a necrotic area of 0.70 and 2.17 cm in diameter at 50 and 250 μM, respectively. […] Peptide conjugates were evaluated for their effect on infiltration on tobacco leaves as described previously ([41]). […] The appearance of symptoms on the leaves was followed for 48 h after infiltration and measured as lesion diameter.
No end group written: not given here.
Listing of recorded Size of the lesions in infiltrated tobacco leaves at 50 μM by entry.

Below: 2 substances and their reported Size of the lesions in infiltrated tobacco leaves at 50 μM.
{"columns": ["SUBSTANCE", "RESULT"],
 "data": [
  ["FKLFKKILKVL-KKLFKKILKKL-NH2 [BP13-BP16, peptide conjugate, BP13 at N-terminus, BP16 at C-terminus]", "0.52 ± 0.08 cm"],
  ["KKVVFWVKFK-RINSAKDDAAGLQIA-OH [KSLW-flg15, peptide conjugate, KSL-W at N-terminus, flg15 at C-terminus]", "0 ± 0 cm"]
]}

Looking up KKLfKKILKYL-FKLFKKILKVL-NH2 [BP143-BP13, peptide conjugate, BP143 at N-terminus, BP13 at C-terminus] , I found its Size of the lesions in infiltrated tobacco leaves at 50 μM recorded as 0.18 ± 0.10 cm

Looking up KKLFKKILKYL-RINSAKDDAAGLQIA-OH [BP100-flg15, peptide conjugate, BP100 at N-terminus, flg15 at C-terminus] , I found its Size of the lesions in infiltrated tobacco leaves at 50 μM recorded as 0.10 ± 0.12 cm

Looking up RINSAKDDAAGLQIA-KKLFKKILKYL-NH2 [flg15-BP100, peptide conjugate, flg15 at N-terminus, BP100 at C-terminus] , I found its Size of the lesions in infiltrated tobacco leaves at 50 μM recorded as 0.46 ± 0.10 cm

Looking up H-KKVVFWVKFKFKLFKKILKVL-NH2 [KSLW-BP13] , I found its Size of the lesions in infiltrated tobacco leaves at 50 μM recorded as 0.52 ± 0.13 cm

Looking up RINSAKDDAAGLQIA-OH [flg15, plant defense elicitor peptide, 15 amino acids of the N-terminal conserved domain of bacterial flagellin; monomer] , I found its Size of the lesions in infiltrated tobacco leaves at 50 μM recorded as 0 ± 0 cm

Looking up KKVVFWVKFK-NH2 [KSL-W, reference compound] , I found its Size of the lesions in infiltrated tobacco leaves at 50 μM recorded as 0 ± 0 cm
